Test system: MDA-MB-231
assay-method-text: Cytotoxicity against human MDA-MB-231 cells after 48 hrs by SRB assay
Format: functional
cond: MDA-MB-231, 48 h
measured-endpoint: LC50 (concentration killing 50% of cells)

Past entries and their recorded results:
O=C1c2ccccc2C(=O)c2c1cc(Sc1ccc(F)cc1F)c1nsnc21; 12.9 µM
CC(C)Sc1cc2c(c3nsnc13)C(=O)c1ccccc1C2=O; 4.9 µM
O=C1c2ccccc2C(=O)c2c1cc(Sc1cccc(Cl)c1)c1nsnc21; 31.6 µM

Just so you know, measured LC50 (concentration killing 50% of cells) for O=C1c2ccccc2C(=O)c2c1cc(SCc1ccccc1)c1nsnc21 came out at 34.8 µM

get_value(item= O=C1c2ccccc2C(=O)c2c1cc(Sc1ccccc1Br)c1nsnc21 , readout=LC50 (concentration killing 50% of cells)) returns > 50 µM
